// values below are reported avg F635, Middle Part Centroid
assay target: KRAS (Homo sapiens)
Construct: His6-tagged human KRas Isoform 4B (residues 1-169); His6; made in house; host or cells: E. coli BL21(DE3), PQE80 vector
Sequence (P01116 1-169 isoform P01116-2): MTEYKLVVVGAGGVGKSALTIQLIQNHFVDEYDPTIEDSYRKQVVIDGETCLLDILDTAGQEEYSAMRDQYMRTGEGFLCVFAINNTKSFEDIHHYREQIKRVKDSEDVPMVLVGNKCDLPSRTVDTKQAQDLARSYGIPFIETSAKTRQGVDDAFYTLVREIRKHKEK
test: B-RAP surface immunofluorescent assay, PCC ligand KRas EC50
Type: binding
test context: 10 μM KRas well of plate #1, pixel by pixel, middle part of centroid
Numbered stars: 1 amine (or outer) side, 2 acyl side, 3 side chain; on linkers, the order of the positions; unused ones are H or OH. Bridge positions count the residues as written; N and C are the ends. Square brackets hold non-standard residues; d marks the D form. Triazole bridges read from a SMILES are 1,4-linked. Peptide text beside a SMILES is read from it. * marks the point of attachment. Biotin = O=C1N[C@H]2[C@H](CS[C@H]2CCCCC(=O)*)N1; Lys(N3) = [N-]=[N+]=NCCCC[C@H](N)C(=O)O; Ethylenediamine = C(CN[*:2])N[*:1]; PEG5 = NCCOCCOCCOCCOCCOCCC(=O)O; Pra = C#CC[C@H](N)C(=O)O
metric name: avg F635, Middle Part Centroid

- CC(C)[C@@H]1NC(=O)[C@@H](N)Cc2cn(nn2)CCCC[C@@H](C(=O)NCCOCCOCCOCCOCCOCCC(=O)NCCNC(=O)CCCC[C@@H]2SC[C@@H]3NC(=O)N[C@@H]32)NC(=O)[C@H](Cc2ccc(O)cc2)NC(=O)[C@@H]2CCCN2C(=O)[C@H](C(C)C)NC(=O)[C@H](CCC(=O)O)NC1=O (single isomer, unassigned) [Ligand L4b, VEVPY]: 27398
- CC(C)[C@@H]1NC(=O)[C@@H](N)Cc2cn(nn2)CCCC[C@@H](C(=O)NCCOCCOCCOCCOCCOCCC(=O)NCCNC(=O)CCCC[C@@H]2SC[C@@H]3NC(=O)N[C@@H]32)NC(=O)[C@H](Cc2ccc(O)cc2)NC(=O)[C@@H]2CCCN2C(=O)[C@H](C(C)C)NC(=O)[C@H]([C@@H](C)O)NC1=O [Ligand L6] (H-[Pra]VTVPY[Lys(N3)][PEG5]-{Ethylenediamine-Biotin}; triazole 1-7): 19382
- NC(=O)CC[C@@H]1NC(=O)[C@@H](N)Cc2cn(nn2)CCCC[C@@H](C(=O)NCCOCCOCCOCCOCCOCCC(=O)NCCNC(=O)CCCC[C@@H]2SC[C@@H]3NC(=O)N[C@@H]32)NC(=O)[C@H](Cc2ccc(O)cc2)NC(=O)[C@H](Cc2ccccc2)NC(=O)[C@H](CC(N)=O)NC(=O)[C@H](CC(=O)O)NC1=O (single isomer, unassigned) [Ligand L9a, QDNFY]: 20262

All values here come from patent US20180284123A1.
